# System: NCI/ADR-RES ovarian
# experiment: NCI-60 one-dose screen, 48 h (100 = growth as untreated, 0 = no growth, -100 = all killed)
# details: 10 µM unless noted
Compounds without any hit were thinned out: in the full panel of roughly 83,000, 20% have a hit. Calls of active or inactive are those of the source. How the source made its calls: active means growth percent below 10; inactive means the rest.
Measured growth by item

// known answers, use as guide
{"compound": "CNC(=O)c1cc(Oc2ccc3nc(NC(=O)c4ccc(N5CCOCC5)c(C(F)(F)F)c4)sc3c2)ccn1", "growth": "70% (inactive)"}
{"compound": "CC(c1ccccc1)N1CSc2nc3ncncc3n2C1 (stereo not drawn)", "growth": "26.7% (inactive)"}

API: the following record is the query input.
Look up growth for this compound: COc1ccc(-n2c(SCc3nnc(NC(=O)c4ccc(Br)cc4)s3)nc3cc(OC)c(OC)cc3c2=O)cc1
78.8% (inactive)
